Let's look at some binders and their measured koff.
Target: T1, 4Ig-B7H3 (human, UniProt Q5ZPR3 27-461, limits assumed)
T1 construct: also called 4Ig-B73H3
T1 sequence (looked up): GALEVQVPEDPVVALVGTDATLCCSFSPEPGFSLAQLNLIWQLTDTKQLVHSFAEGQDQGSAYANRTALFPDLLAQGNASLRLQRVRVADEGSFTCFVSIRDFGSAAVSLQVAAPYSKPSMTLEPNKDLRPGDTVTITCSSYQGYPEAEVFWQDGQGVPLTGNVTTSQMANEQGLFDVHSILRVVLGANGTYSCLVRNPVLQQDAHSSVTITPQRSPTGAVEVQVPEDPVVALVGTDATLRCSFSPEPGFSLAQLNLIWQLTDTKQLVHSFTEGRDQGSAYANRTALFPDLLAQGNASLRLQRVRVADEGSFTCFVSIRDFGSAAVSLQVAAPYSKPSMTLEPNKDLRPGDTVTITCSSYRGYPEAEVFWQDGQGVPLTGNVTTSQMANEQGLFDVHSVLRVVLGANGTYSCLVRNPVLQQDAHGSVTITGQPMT
Assay: SPR (Biacore T-100), 4Ig-B7H3 on CM5 chip, scFv injected
State the answer as a number, implicitly in s⁻¹.

Solved entries:
{"Binder": "hu8H9 clone S7.2 scFv (scFv, not shown: FLAG and His tags) scFv: QVQLVQSGAEVVKPGASCKLSCKTSGYTFTNYDINWVRQRPGQGLEWIGWIFPGDGSTQYNEKFKGKATLTTDTSTSTAYMELSSLRSEDTAVYFCARQTTATWFAYWGQGTLVTVSSGGGGSGGGGSGGVGSEIVMTQSPATLSVSPGERVTLSCRASQSIGDYLYWYQQKSHESPRLLIKYASQSISGIPARFSGSGSGSEFTLTINSVEPEDVGVYYCQNGHSFPLTFGQGTKLELKR", "koff, s⁻¹": 0.000143}
{"Binder": "hu8H9 H3L3 scFv (scFv, also called parental hu8H9 H3L3; not shown: FLAG and His tags) scFv: QVQLVQSGAEVVKPGASVKLSCKASGYTFTNYDINWVRQRPEQGLEWIGWIFPGDGSTQYNEKFKGKATLTTDTSTSTAYMELSSLRSEDTAVYFCARQTTATWFAYWGQGTLVTVSSGGGGSGGGGSGGGGSEIVMTQSPATLSVSPGERVSLSCRASQSISDYLHWYQQKSHESPRLLIKYASQSISGIPARFSGSGSGSEFTLTINSVEPEDVGVYYCQNGHSFPLTFGQGTKLELKR", "koff, s⁻¹": 0.000919}
{"Binder": "hu8H9 clone S7.17 scFv (scFv, not shown: FLAG and His tags) scFv: QVQLVQSGAEVVKPGASVKLSCKTSGYTFTNYDINWVRQRPGQGLEWVGWIFPGDGSTQYNEKFKGKATLTTDTSTSTAYMELSSLRSEDTAVYFCARQTTSTWFAYWGQGTLVTVSSGGGGSGGGGSGGGGSEIVMTQSPATLSVSPGERVTLSCRASQPISDYLYWYQQKSHESPRLLIKYASQSISGIPARFSGSGSGSEFTLTINSVEPEDVGVYYCQNGYSFPLTFGQGTKLELKR", "koff, s⁻¹": 0.000113}

Q. Which koff is listed for hu8H9 clone S7.22 scFv (scFv, not shown: FLAG and His tags) scFv: QVQLVQSGAEVVKPGASVKLSCKTSGYTFTNYDINWVRQRPGQGLEWIGWIFPGDDSTQYNEKFKGKATLTTDTSTSTAYMELSSLRPEDTAVYFCARQTTGTWFAYWGQGTLVTVSSGGGGSGGGGSGGGGSEIVMTQSPATLSVSPGERVTLSCRASQSISDYLYWYQQKSHESPRLLIKYASQSIPGIPARFSGSGSGSEFTLTINSVEPEDVGVYYCQNGHSFPLTFGQGTKLELKR ?
A. 9.99e-05

Q. Entry hu8H9 clone S3.3 scFv (scFv, also called Sort3; not shown: FLAG and His tags) scFv: QVQLVQSGAEVVKPGASVKLSCKTSGYTFTNYDINWVRQRPGQGLEWIGWIFPGDGSTQYNEKFKGKATLTTDTSTSTAYMELSSLRSEDTAVYFCARQTTATWFAYWGQGTLVTVSSGGGGSGGGGSGGGGSEIVMTQSPATLSVSPGERVTLSCRASQSISDYLYWYQQKSHESPRLLIKYASQSISGIPARFSGSGSGSEFTLTINSVEPEDVGVYYCQNGHSFPLTFGQGTKLELKR please
A. 0.000244

Q. Entry hu8H9 clone S7.29 scFv (scFv, not shown: FLAG and His tags) scFv: QVQLVQSGAEVVKPGASVKLSCKTSGYTFTNYDINWVRQRPGQGLEWIGWIFPGDGSTQYNEKFKGKATLTTDTSTSTAYLELSSLGSEDTAVYFCARQTTGTWFAYWGQGTLVTVSSGGGGSGGGGSGGGGSEIVMTQSPATLSVSPGERVTLSCRASQSISDYLYWYQQKSHESPRLLIKYASQSISGIPARFSGSGSGSEFTLTINSVEPEDVGVYYCQNGHSFPLTFGQGTKLELKR please
A. 0.000152

Q. Entry hu8H9 clone S7.28 scFv (scFv, not shown: FLAG and His tags) scFv: QVQLVQSGAEVVKPGASVKLSCKTSGYTFTNYDINWVRQRPGQGLEWIGWIFPGDGSTQYNEKFKGKATLTTDTSTSTAYMELSSLGSEDTAVYFCTRQTTATWFAYWGQGTLVTVSSGGGGSGGGGSSGGGSEIVMTQSPATLSVSPGERVTLSCRASQSIGDYLYWYQQKSHESPRLLIKYASQSISGIPARFSGSGSGSEFTLTINSVEPEDVGVYYCQNGHSFPLTFGQGTKLELKR please
A. 0.00132
